Measured values drawn from patent US20100047253A1 for this set.

molecular target: human IL-13 (source not stated for the assay) (human, UniProt P35225 35-146, limits assumed); test: cell-based or functional assay
Sequence (P35225 35-146 limits assumed): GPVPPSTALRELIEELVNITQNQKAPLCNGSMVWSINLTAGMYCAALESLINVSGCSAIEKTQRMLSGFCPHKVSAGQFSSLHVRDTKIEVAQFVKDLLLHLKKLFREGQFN
Listing of recorded IC50, IL-13 induced eotaxin release, n = 1 by entry.
parameter_measured: IC50, IL-13 induced eotaxin release, n = 1

# binder, observed_value
measured = [
    ("mAb 157 (antibody, V domains shown) VH: EVQLVESGGGLVKPGGSLRLSCAASGFTFSSYSMNWVRQAPGKGLEWVSYISTSYNYIYYADSVKGRFTISRDNAKNSLYLQMNSLRAEDTAVYYCARDQVGATLDAFDIWGQGTMVTVSS VL: DIQMTQSPSSLSASVGDRVTITCRASQGIGDDLGWYQQKPGKAPKRLIYAASSLQSGVPSRFSGSGSGTEFTLTISSLQPEDFATYYCLQHNSYPFTFGPGTRVDIK", "260 pM"),
    ("mAb 264 (antibody, V domains shown) VH: EVQLVESGGGLVKPGGSLRLSCAASGFTFSSYSMNWVRQAPGKGLEWVSYISTSNSYIYYADSVKGRFTISRDNAKNSLYLQMNSLRAEDTAVYYCARDQVGATLDAFDIWGQGTMVTVSS VL: DIQMTQSPSSLSASVGDRVTFTCRASQDITDDLGWYQQKPGKAPKRLIYAASSLQSGVPSRFSGSGSGTEFTLTISSLQPEDFATYYCLQHNSYPFTFGPGTKVDIR", "293 pM"),
    ("mAb 693 (antibody, V domains shown, also called sc693) VH: QVQLQESGPGLVKPSETLSLTCSVSGGSISSYYWSWIRQPAGKGLEWIGRIYMTGRTNYNSSLKSRVTMSIDTSKNQLSLKLSFMTAADTAVYYCARESGSSYSYDYWGQGTLVTVSS VL: SYVLTQPPSVSVAPGQTARITCGGNNIGSKGVHWYQQKPGQAPVLVVYDDSDRPSGIPERFSGSNSGNTATLTISRVEAGDEADYYCQVWVSSSDHHVVFGGGTKLTVV", "38 pM"),
    ("mAb 623 (antibody, V domains shown, also called sc623) VH: EVQLVESGGGLVKPGGSLRLSCAASGFTFSNAWMSWVRQAPGKGLEWVGRIRSEIDGGTTNYAAPVKGRFTISRDDSKNTLYLQMNSLKTEDTAVYYCATDQVGAYYGDYYGMDVWGQGTTVTVSS VL: SYELTQPPSVSVSPGQTARITCSGDALPEKYAYWYQQKSGQAPVLVIYEDSKRPSGIPERFSGSSSGTMATLTISGAQVEDEADYYCHSTDSSGNHGVFGGGTKLTVLG", "31 pM"),
    ("mAb 11.18 (antibody, V domains shown) VH: QVQLVESGGGVVQPGRSLRLSCVASGFTFSSYDMHWVRQAPGKGLEWVAVIWYDGSNKYYADSVQGRFTISRDNSKNTLYLQMNSLRAEDTAVYYCTSEDSSGWYDGWFDPWGQGTLVTVSS VL: DIQMTQSPSSLSASVGDRVTITCRASQGISNYLAWYQQKPGKVPKVLIYAASTLQSGVPSRFSGSGSGTDFTLTISSLQPEDVATYYCQKYNSAPFTFGPGTKVDIK", "213 pM"),
]
